Target: adrenergic α1B receptor (Homo sapiens, UniProt P35368)
Sequence (P35368 1-520): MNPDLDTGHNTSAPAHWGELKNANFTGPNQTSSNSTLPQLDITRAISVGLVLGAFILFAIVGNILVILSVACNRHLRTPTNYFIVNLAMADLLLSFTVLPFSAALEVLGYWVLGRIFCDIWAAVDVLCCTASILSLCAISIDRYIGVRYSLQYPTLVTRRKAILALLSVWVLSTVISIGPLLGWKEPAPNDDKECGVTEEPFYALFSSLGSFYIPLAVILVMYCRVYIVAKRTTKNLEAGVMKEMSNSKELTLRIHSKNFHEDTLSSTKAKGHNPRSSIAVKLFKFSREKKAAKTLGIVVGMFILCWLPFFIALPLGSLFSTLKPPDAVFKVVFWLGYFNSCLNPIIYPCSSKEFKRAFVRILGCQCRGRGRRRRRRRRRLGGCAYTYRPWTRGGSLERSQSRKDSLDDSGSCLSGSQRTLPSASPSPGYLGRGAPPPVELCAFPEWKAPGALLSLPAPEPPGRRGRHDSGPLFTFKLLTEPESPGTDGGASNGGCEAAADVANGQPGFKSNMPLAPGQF
Test: Radioligand binding, adrenergic α1B
Conditions: 100 nM test compound
Below, each of the compounds is paired with its reported percent displacement of bound radioligand, adrenergic α1B value.
// units = %; emit number, no label

INSERT INTO measurements (compound, target, result) VALUES
  ('CC[C@@H]1CN2CCc3c([nH]c4cccc(O)c34)[C@@H]2C[C@@H]1/C(=C\OC)C(=O)OC [9-hydroxycorynantheidine]', 'adrenergic α1B receptor (Homo sapiens, UniProt P35368)', '−4.4'),
  ('CC[C@@H]1CN2CC[C@@]3(O)C(=Nc4cccc(OC)c43)[C@@H]2C[C@@H]1/C(=C\OC)C(=O)OC [7-hydroxymitragynine]', 'adrenergic α1B receptor (Homo sapiens, UniProt P35368)', 5.9),
  ('CC[C@@H]1CN2CCc3c([nH]c4cccc(OC)c34)[C@@H]2C[C@@H]1/C(=C\OC)C(=O)OC', 'adrenergic α1B receptor (Homo sapiens, UniProt P35368)', '−12.5');

// moving on: another record for percent displacement of bound radioligand, adrenergic α1B
If you can, please state the reported percent displacement of bound radioligand, adrenergic α1B value of `CC[C@@H]1CN2CCc3c([nH]c4ccccc34)[C@@H]2C[C@@H]1/C(=C\OC)C(=O)OC` .
19.6
